The entries below are paired with their reported inhibition.
molecular target: Ephrin type-B receptor 3 (Homo sapiens) (UniProt P54753); settings: at 1 µM;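 further: values are mean percent inhibition of EPHB3 from the GSK PKIS screening panel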
Sequence (P54753 whole entry): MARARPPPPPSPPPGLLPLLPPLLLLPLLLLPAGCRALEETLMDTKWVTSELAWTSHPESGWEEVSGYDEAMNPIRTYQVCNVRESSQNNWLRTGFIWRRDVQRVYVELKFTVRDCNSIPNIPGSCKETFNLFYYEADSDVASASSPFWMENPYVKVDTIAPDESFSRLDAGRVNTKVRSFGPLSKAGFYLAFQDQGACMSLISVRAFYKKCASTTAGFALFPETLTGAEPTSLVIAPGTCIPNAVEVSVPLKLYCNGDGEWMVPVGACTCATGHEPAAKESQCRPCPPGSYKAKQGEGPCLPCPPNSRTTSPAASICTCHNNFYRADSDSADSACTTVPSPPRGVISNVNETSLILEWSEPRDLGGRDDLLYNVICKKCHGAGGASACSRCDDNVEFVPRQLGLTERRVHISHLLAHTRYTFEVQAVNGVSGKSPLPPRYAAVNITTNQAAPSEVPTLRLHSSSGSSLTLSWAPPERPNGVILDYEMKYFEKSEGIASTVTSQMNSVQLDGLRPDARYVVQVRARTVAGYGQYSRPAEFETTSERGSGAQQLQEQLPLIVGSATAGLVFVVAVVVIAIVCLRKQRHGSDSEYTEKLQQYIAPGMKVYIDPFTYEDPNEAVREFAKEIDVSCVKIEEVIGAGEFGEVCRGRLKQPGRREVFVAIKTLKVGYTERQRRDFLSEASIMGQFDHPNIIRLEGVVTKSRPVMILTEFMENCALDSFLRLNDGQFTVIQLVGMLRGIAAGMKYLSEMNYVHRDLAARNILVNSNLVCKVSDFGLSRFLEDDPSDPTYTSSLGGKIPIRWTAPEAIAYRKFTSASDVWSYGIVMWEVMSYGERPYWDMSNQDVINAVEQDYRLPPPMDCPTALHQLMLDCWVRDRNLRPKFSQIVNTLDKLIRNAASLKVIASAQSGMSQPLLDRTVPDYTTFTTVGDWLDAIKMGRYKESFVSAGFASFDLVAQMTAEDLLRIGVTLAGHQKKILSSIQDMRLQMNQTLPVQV

- Compound: "COc1cc(C)c(NC(=O)CN(C)C)cc1Nc1nc(Nc2cccc(F)c2C(N)=O)c2cc[nH]c2n1"
  inhibition (%): 0.2
- Compound: "c1cnn2ncc(-c3ccnc(Nc4ccc5c(c4)OCCO5)n3)c2c1"
  inhibition (%): 6.8
- Compound: "CS(=O)(=O)CCNCc1ccc(-c2ccc3ncnc(Nc4ccc(OCc5ccccc5)c(Cl)c4)c3c2)o1"
  inhibition (%): 2.9
- Compound: "O=C1NC(=O)C(N2CCc3ccccc32)=C1c1ccc(Cl)cc1"
  inhibition (%): 6.04
- Compound: "Cn1cc(C=C2C(=O)Nc3cccnc32)c2ccccc21"
  inhibition (%): -0.71
- Compound: "NC(=O)c1cccc(Nc2nccc(Nc3cccc4[nH]ncc34)n2)c1"
  inhibition (%): 4.33
- Compound: "O=C(Nc1n[nH]c2nc(-c3ccco3)c(Br)cc12)C1CC1"
  inhibition (%): 3.95
- Compound: "CS(=O)(=O)CCNCc1nc(-c2ccc3ncnc(Nc4ccc(F)c(Cl)c4)c3c2)cs1"
  inhibition (%): 9.44
- Compound: "Nc1ncnc2occ(-c3ccc(NC(=O)Nc4cc(C(F)(F)F)cc(C(F)(F)F)c4)cc3)c12"
  inhibition (%): 27.9
- Compound: "CNC(=O)c1cncc(/C=C/c2c(Cl)cccc2Cl)c1"
  inhibition (%): 2.92
